Source: the supplement of paper PMC9170038

- Tested on: MS2 coat protein
- assay_name: apparent KD of MS2 coat protein; higher = weaker reporter binding
- test_context: Eterna round: R107; input ligand: arginine 13.2 mM
Record form. Attribute: apparent KD of MS2 coat protein. Fill in for each entry.
Value expressed in nM; do not type the unit.

Returns the measured apparent KD of MS2 coat protein for the input sequence. Input: UGCUAGUGAUCGGCCGCCACUGGCACCUUGAGGAUCCUGCUAAAGUACAUGAGGAUCACCCAUGUCAGGACCGGGAUCAUCAGUG [Onveusonri]
9.02

Report apparent KD of MS2 coat protein for UUGUUAUACGGAAGGAGCGUGUAAGAUUAAGAACAUGAGGAUCACCCAUGUUUUAAGGGAACACAGGUAGGUCGCCGUAUAGUGG [11.P] please.
16.4

Any idea what its apparent KD of MS2 coat protein is? The sequence is AAGCGGGCGACGGCCGCCACUUGCCUGUAAUUAGAGAAGGCACAUGAGGAUCACCCAUGUCCCGCAAGGACCGGGUUGCCUCACU [Ditiraorce]
93.6

Sample GAUAUGUAUCGAAGGAGCGGCCCUUGAUCCUCAUGAGACAUGAGGAUCACCCAUGUCUCGGGCCAGGUAGGUCGCGAUAUAUAUC [Astros-omei-mod3] — what was its apparent KD of MS2 coat protein?
24.9

So what's the measured apparent KD of MS2 coat protein for this one? GAGCUGAUGUAGGCCGGAUAUCCGGGAGAUACCAGUACAGAAAUGUACCCUUGGCAGCUCUUUCCUACAUGAGGAUCACCCAUGU [Ex Theophylline A 28]
17

Entry under review: GCUAGGUCUACGGCCGCCACUAGACGUGGGUAAAACAUGAGGAUCACCCAUGUGCUACGGGCGAAUAGGACCGGGUAGACCUAGC [SSTB NP+V+V2 #15 +-Same Structure] . Reported apparent KD of MS2 coat protein?
60.1

Query (sequence): AUGUAGCCGUCGACUGUACCUUAUGCCGAUACCAGCUACCCGUGAAGCCCUUGGCAGCGGGAAACAUGAGGAUCACCCAUGUCAG [theeternabot_exclusion_MS2_Theo_A_13] ; field requested: apparent KD of MS2 coat protein
19.6

Which apparent KD of MS2 coat protein value is on record for AUACAUGAGGAUCACCCAUGUUAUAGUGAAGGAGCGACAUUUAGGUCAGGUAGGUCGCACUAUUGAAUUAUUAUCCUCUUUUCUU [JR_ExcArginiA_Sub021] ?
23.1

Look up apparent KD of MS2 coat protein for this sequence: GUUAUAUACUCGGCCGCCACUGAGAGAGUCAUGUAAACAUGAGGAUCACCCAUGUAAUAUAUAUACAGGACCGGGAGUAUGGUAA [4.E]
12.1

For the sequence UCAAUACAGUCGGCCGCCACUGUAACCAAACCUACAUACCAACAUGAGGAUCACCCAUGUUUAUACAGGACCGGGACCUCUAUGA [theeternabot_sameState_MS2_Trp_B_10] , what apparent KD of MS2 coat protein is on record?
32.6

So what does the record say about apparent KD of MS2 coat protein for GGUUACUCUACGGCCGCCACUGGGCAUGUAAAUAACAUGAGGAUCACCCAUGUGGAUUAAAAUUACAGGACCGGGUAGUGUAACC [Tryptophan B 21] ?
86.6

Would you kindly share the measured apparent KD of MS2 coat protein for GCAUCCUAGUCGGCCGCCACUGACAUGAGGAUCACCCAUGUACAUGAGGAUCACCCAUGUUGUAACAGGACCGGGACUAGGAUGC [SS Tryp B #18] ?
69.3
